# assay: Clearance in Sprague-Dawley rat at 5 mg/kg, iv
# Assay type: ADME, organism-based
# Set-up: dose 5 mg/kg, route intravenous
# details: in vivo
endpoint label: clearance (mL/min)
One number for each entry, in mL/min.

Please report the recorded clearance for "Cc1nn(C)cc1-c1nc2c(N3CCN(Cc4ccc(Cl)cc4)CC3)c(Cl)cnc2[nH]1" .
0.95

----------
For each record, write down the corresponding Kd.
# target entity: Receptor-type tyrosine-protein kinase FLT3 (Homo sapiens)
# Sequence (P36888 whole entry): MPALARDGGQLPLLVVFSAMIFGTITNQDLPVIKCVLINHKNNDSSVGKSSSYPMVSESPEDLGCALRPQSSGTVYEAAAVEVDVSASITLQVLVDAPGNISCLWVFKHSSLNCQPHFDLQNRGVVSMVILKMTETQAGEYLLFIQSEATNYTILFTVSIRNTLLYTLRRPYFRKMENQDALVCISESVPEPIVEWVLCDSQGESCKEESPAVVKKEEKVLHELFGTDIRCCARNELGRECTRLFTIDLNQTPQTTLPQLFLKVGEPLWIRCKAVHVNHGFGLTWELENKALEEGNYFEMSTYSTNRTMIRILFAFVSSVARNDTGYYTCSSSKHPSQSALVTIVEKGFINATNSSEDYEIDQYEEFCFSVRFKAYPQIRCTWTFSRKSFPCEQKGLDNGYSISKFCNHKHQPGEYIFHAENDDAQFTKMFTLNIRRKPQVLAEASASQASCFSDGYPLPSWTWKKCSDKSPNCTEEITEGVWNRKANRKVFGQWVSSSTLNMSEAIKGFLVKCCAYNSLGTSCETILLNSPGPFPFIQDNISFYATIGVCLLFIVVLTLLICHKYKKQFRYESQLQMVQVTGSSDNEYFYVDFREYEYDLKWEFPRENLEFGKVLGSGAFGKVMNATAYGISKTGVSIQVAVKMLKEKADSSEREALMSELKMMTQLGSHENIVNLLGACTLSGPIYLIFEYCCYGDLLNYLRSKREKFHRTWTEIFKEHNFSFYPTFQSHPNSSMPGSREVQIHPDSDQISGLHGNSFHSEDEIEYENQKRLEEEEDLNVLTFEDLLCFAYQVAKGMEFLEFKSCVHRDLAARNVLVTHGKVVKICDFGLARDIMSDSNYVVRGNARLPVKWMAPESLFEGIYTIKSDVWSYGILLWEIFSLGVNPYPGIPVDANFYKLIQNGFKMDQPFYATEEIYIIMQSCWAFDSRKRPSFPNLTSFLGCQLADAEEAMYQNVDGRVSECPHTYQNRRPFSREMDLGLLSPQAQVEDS
Please append the unit to your numeric answer.

Cc1nn(C)cc1-c1nc2c(N3CCN(Cc4cncnc4)CC3)c(Cl)cnc2[nH]1 = 5.9 nM
Cc1cc(CN2CCN(c3c(Br)cnc4nc(-c5ccc(N6CCN(C)CC6)cc5)[nH]c34)CC2)no1 = 1.2 nM
Cc1cc(CN2CCN(c3c(Br)cnc4[nH]c(-c5cncn5C)nc34)CC2)no1 = 14 nM
Cc1cc(CN2CCN(c3c(Cl)cnc4[nH]c(-c5cn(C)nc5C)nc34)CC2)no1 = 2.4 nM
Cc1cc(CN2CCN(c3c(Cl)cnc4[nH]c(-c5cnn(C)c5)nc34)CC2)no1 = 12 nM

Let us examine a further case.
Please report the recorded Kd for "Cc1cc(CN2CCN(c3c(Cl)cnc4[nH]c(-c5cccc(N6CCN(C)CC6)c5)nc34)CC2)no1" .
5.4 nM

----------
# assay: Half life in Balb/C mouse at 5 mg/kg, iv
# Type: ADME, organism-based
# Parameters: dose 5 mg/kg, route intravenous
# details: in vivo
endpoint label: half-life (min)
One number for each entry, in min.

Please report the recorded half-life for "Cc1nn(C)cc1-c1nc2c(N3CCN(Cc4ccc(Cl)cc4)CC3)c(Cl)cnc2[nH]1" .
50.4

----------
For each record, write down the corresponding metabolised at 0.5 h.
# assay: Metabolic stability in human liver microsomes assessed as parent compound metabolism after 30 mins by LC-MS analysis
# Format: ADME, Microsome
# details: read-out: Drug metabolism

Some solved entries appear below for comparison.
Cc1nn(C)cc1-c1nc2c(N3CCN(Cc4ncon4)CC3)c(Cl)cnc2[nH]1 = 22%
Cc1cc(CN2CCN(c3c(Br)cnc4[nH]c(-c5ccc(N6CCOCC6)cc5)nc34)CC2)no1 = 99%
COCCN1CCN(c2ccc(-c3nc4ncc(Br)c(N5CCN(Cc6cc(C)on6)CC5)c4[nH]3)cc2)CC1 = 69%
Cc1nn(C)cc1-c1nc2ncc(Cl)c(N3CCN(Cc4cnccn4)CC3)c2[nH]1 = 76%
Cc1nn(C)cc1-c1nc2ncc(Cl)c(N3CCN(Cc4nonc4C)CC3)c2[nH]1 = 54%
Cc1nn(C)cc1-c1nc2c(N3CCN(Cc4ccc(Cl)cc4)CC3)c(Cl)cnc2[nH]1 = 10%

Hi team, please reply with metabolised at 0.5 h for each item in this list.
1. Cc1nn(C)cc1-c1nc2c(N3CCN(Cc4ncn(C)n4)CC3)c(Cl)cnc2[nH]1
2. Cc1cc(CN2CCN(c3c(Cl)cnc4[nH]c(-c5cnn(C(C)C)c5)nc34)CC2)no1
3. Cc1nn(C)cc1-c1nc2c(N3CCN(Cc4cncnc4)CC3)c(Cl)cnc2[nH]1
4. Cc1cc(CN2CCN(c3c(Cl)cnc4[nH]c(-c5ccc(N6CCN(C)CC6)cc5F)nc34)CC2)no1
5. Cc1cc(CN2CCN(c3c(Cl)cnc4[nH]c(-c5cnn(CC(F)F)c5)nc34)CC2)no1
6. Cc1nc(CN2CCN(c3c(Cl)cnc4[nH]c(-c5cn(C)nc5C)nc34)CC2)no1
7. CC(=O)N1CCN(c2ccc(-c3nc4ncc(Br)c(N5CCN(Cc6cc(C)on6)CC5)c4[nH]3)cc2)CC1

24%
17%
50%
99%
0%
20%
94%

Hi team, please reply with metabolised at 0.5 h for each item in this list.
1. Cc1cc(CN2CCN(c3c(Cl)cnc4nc(-c5cccc(CN(C)C)c5)[nH]c34)CC2)no1
2. CCN1CCN(c2ccc(-c3nc4c(N5CCN(Cc6cc(C)on6)CC5)c(Cl)cnc4[nH]3)cc2)CC1
3. Cc1cc(CN2CCN(c3c(Br)cnc4nc(-c5ccc(N6CCN(C)CC6)cc5)[nH]c34)CC2)no1
4. Cc1cc(CN2CCN(c3c(Cl)cnc4[nH]c(-c5cccc(N6CCN(C)CC6)c5)nc34)CC2)no1
5. Cc1cc(CN2CCN(c3c(Cl)cnc4[nH]c(-c5cccc(OCCN(C)C)c5)nc34)CC2)no1
6. Cc1cc(CN2CCN(c3c(Cl)cnc4nc(-c5ccc(N6CCN(C)CC6)cc5)[nH]c34)CC2)no1

["36%", "72%", "86%", "24%", "18%", "89%"]

Hi team, please reply with metabolised at 0.5 h for each item in this list.
1. Cc1cc(CN2CCN(c3c(Cl)cnc4[nH]c(-c5cn(C)nc5C)nc34)CC2)no1
2. Cc1cc(CN2CCN(c3c(Cl)cnc4[nH]c(-c5cn(C)nc5C5CC5)nc34)CC2)no1
3. CCn1cc(-c2nc3ncc(Cl)c(N4CCN(Cc5cc(C)on5)CC4)c3[nH]2)cn1

["38%", "64%", "22%"]

Hi team, please reply with metabolised at 0.5 h for each item in this list.
1. Cc1cc(CN2CCN(c3c(Cl)cnc4nc(-c5ccc(N6CCN(C)CC6)c(F)c5)[nH]c34)CC2)no1
2. Cc1cc(CN2CCN(c3c(Cl)cnc4nc(-c5cccc(CN6CCOCC6)c5)[nH]c34)CC2)no1

68%
71%

----------
# assay: Oral bioavailability in Sprague-Dawley rat at 5 mg/kg
# Format: ADME, organism-based
# details: in vivo
endpoint label: bioavailability (%)
Give bare numbers, in %.

Please report the recorded bioavailability for Cc1nn(C)cc1-c1nc2c(N3CCN(Cc4ccc(Cl)cc4)CC3)c(Cl)cnc2[nH]1 [MOBINITINIB] .
79

----------
# target entity: Cytochrome P450 2A6 (Homo sapiens, UniProt P11509)
# Sequence (P11509 whole entry): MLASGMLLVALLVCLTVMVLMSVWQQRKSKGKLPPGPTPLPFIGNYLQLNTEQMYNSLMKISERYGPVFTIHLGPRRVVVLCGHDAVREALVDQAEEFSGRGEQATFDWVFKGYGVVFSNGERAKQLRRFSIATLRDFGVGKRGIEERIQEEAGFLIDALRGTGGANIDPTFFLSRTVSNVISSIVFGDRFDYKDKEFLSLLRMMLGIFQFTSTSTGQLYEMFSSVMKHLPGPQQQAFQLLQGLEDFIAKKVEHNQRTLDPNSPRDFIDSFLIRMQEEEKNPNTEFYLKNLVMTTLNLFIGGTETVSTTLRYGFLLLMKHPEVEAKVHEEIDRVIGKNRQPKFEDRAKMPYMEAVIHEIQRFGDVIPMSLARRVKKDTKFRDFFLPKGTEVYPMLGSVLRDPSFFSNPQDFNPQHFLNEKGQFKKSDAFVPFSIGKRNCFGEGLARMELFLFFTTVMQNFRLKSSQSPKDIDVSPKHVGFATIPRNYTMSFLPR
pIC50: −log10 of the molar value.
endpoint label: pIC50

Please report the recorded pIC50 for "Cc1nn(C)cc1-c1nc2c(N3CCN(Cc4ccc(Cl)cc4)CC3)c(Cl)cnc2[nH]1" .
< 5.00

----------
# assay: AUC (infinity) in Sprague-Dawley rat at 5 mg/kg, iv
# Format: ADME, organism-based
# Parameters: time infinity, dose 5 mg/kg, route intravenous
# details: plasma
endpoint label: AUC(0-inf) (µM·h)
Answers are plain numbers, in µM·h.

Please report the recorded AUC(0-inf) for "Cc1nn(C)cc1-c1nc2c(N3CCN(Cc4ccc(Cl)cc4)CC3)c(Cl)cnc2[nH]1" .
39.9

----------
# assay: Metabolic stability in mouse liver microsomes assessed as parent compound metabolism after 30 mins by LC-MS analysis
# Format: ADME, Microsome
# details: read-out: Drug metabolism
endpoint label: metabolised at 0.5 h (%)
Numbers only, in %.

Cc1nn(C)cc1-c1nc2ncc(Cl)c(N3CCN(Cc4cnccn4)CC3)c2[nH]1 = 99

Hi team, please reply with metabolised at 0.5 h for each item in this list.
1. Cc1cc(CN2CCN(c3c(Cl)cnc4[nH]c(-c5cccc(OCCN(C)C)c5)nc34)CC2)no1
2. Cc1nn(C)cc1-c1nc2c(N3CCN(Cc4ncon4)CC3)c(Cl)cnc2[nH]1
3. COCCN1CCN(c2ccc(-c3nc4ncc(Br)c(N5CCN(Cc6cc(C)on6)CC5)c4[nH]3)cc2)CC1
4. Cc1nc(CN2CCN(c3c(Cl)cnc4[nH]c(-c5cn(C)nc5C)nc34)CC2)no1
5. Cc1cc(CN2CCN(c3c(Br)cnc4nc(-c5ccc(N6CCN(C)CC6)cc5)[nH]c34)CC2)no1

1. 23
2. 67
3. 66
4. 58
5. 36
